Tested on: NCI-H522 lung
assay-procedure: NCI-60 one-dose screen, 48 h
experimental-conditions: 10 µM unless noted
This is part of a sample that, as a whole, favours compounds with a hit. Of some 83,000 tested, about 20% had one in any assay. Active and inactive are the calls of the source. Rule for the calls: active = growth percent below 10; inactive = the rest.
Return exactly one item of t = active, f = inactive

Could you please tell me the result logged for O=c1oc2ccccc2cc1C1=NN=C(SCc2ccccc2)SC1 in this assay?
f

Could you please tell me the result logged for CCCCCCCCCCCCCCCCCCOc1ccccc1CC(=O)OCC[N+]1(C)CCCC1 in this assay?
t

Could you please tell me the result logged for CCCCCCNC(=O)Oc1ccc(/C(=C(/C)Cc2ccc(OC)cc2)c2ccc(OCCCN(C)C)cc2)cc1 in this assay?
f

Could you please tell me the result logged for C=CC(=O)NCc1ccc(Nc2nccc(-c3ccc(N4CCCC4)c(C#N)c3)n2)cc1 in this assay?
f

Could you please tell me the result logged for CN(C)CCNc1nc2c3cc(Cl)ccc3nn2c2ccccc12 in this assay?
f

Could you please tell me the result logged for Cc1nc2sc(C(=O)Nc3cccc(Cl)c3C)c(N)c2cc1C(=O)c1ccccc1 in this assay?
t

Could you please tell me the result logged for CCN(CC)C(=S)SC(SC(=S)N(CC)CC)C(=O)c1nnn(-c2ccc([N+](=O)[O-])cc2)c1C in this assay?
f

Could you please tell me the result logged for CCCCN1C(=O)/C(=c2\sc3n(c2=O)C2C(NN=3)N(CC)C(=O)N2CC)c2ccccc21 (stereo not given) in this assay?
t

Could you please tell me the result logged for O=C1/C(=C/c2ccc(F)cc2)COc2ccc(O)c(O)c21 in this assay?
t

Could you please tell me the result logged for Fc1ccc(Nc2nc3nonc3nc2Nc2ccc(I)cc2)cc1 in this assay?
t

----------
Tested on: NCI/ADR-RES ovarian
assay-procedure: NCI-60 one-dose screen, 48 h (100 = growth as untreated, 0 = no growth, -100 = all killed)
experimental-conditions: 10 µM unless noted
Compounds without any hit were thinned out: in the full panel of roughly 83,000, 20% have a hit.
Binarize growth at 80%; below is 1, at or above is -1.

Take the molecule C=C1C(=O)O[C@H]2[C@H]1CC/C(COC(=O)NCc1cc[nH]c1)=C\CC[C@@]1(C)O[C@@H]21 and say whether its growth is less than 80%.
-1

Take the molecule CO[C@H]1/C=C(/C)CCC[C@H](C)[C@H](O)[C@@H](C)C(=O)C(C)(C)[C@@H](O)CC(=O)O[C@@H]1/C(C)=C/c1csc(C)n1 and say whether its growth is less than 80%.
1

Take the molecule COc1ccc(-c2nc(/C=C3\SC(=NCc4ccccc4)NC3=O)c3ccccn23)cc1 and say whether its growth is less than 80%.
1

Take the molecule C=CCc1c(O)c(C(=O)/C=C/c2ccc(Cl)cc2)c(OC)c2ccoc12 and say whether its growth is less than 80%.
1

Take the molecule O=C(Nc1ccc(NC(=O)c2cc(=O)[nH]c3ccccc23)cc1)Nc1cccc(C(F)(F)F)c1 and say whether its growth is less than 80%.
-1

Take the molecule Cc1ccc(Sc2oc(-c3ccc(C)cc3)nc2[P+](c2ccccc2)(c2ccccc2)c2ccccc2)cc1 and say whether its growth is less than 80%.
1

Take the molecule COc1ccc(-c2nc(SCC(C)C)nc(N/N=C\c3ccc(F)cc3)c2C#N)cc1 and say whether its growth is less than 80%.
-1

Take the molecule C=CCn1cc(-c2nc3ccccc3s2)c2cc(-c3ccc4c5c(cccc35)C(=O)N(N)C4=O)ccc21 and say whether its growth is less than 80%.
-1

----------
System: U251 CNS
assay-procedure: NCI-60 one-dose screen, 48 h (100 = growth as untreated, 0 = no growth, -100 = all killed)
experimental-conditions: 10 µM unless noted
Compounds without any hit were thinned out: in the full panel of roughly 83,000, 20% have a hit.
Kindly supply the reported growth values for the records listed here.
Expressed in %, but write only the number.

Look up and report measured growth (U251 CNS) for the following compound: O=C(Cn1c(=O)sc2nc3ccccc3nc21)Nc1ncc(Cc2cccc(Cl)c2Cl)s1
94.9

Look up and report measured growth (U251 CNS) for the following compound: O=C(Cn1cc(CN2CCCCCC2)nn1)Nc1ccc2c(ccn2Cc2ccccc2)c1
80.8

Look up and report measured growth (U251 CNS) for the following compound: N#CC1CCc2c(c(-c3cn[nH]c3C(F)(F)F)nc3c(F)cc4[nH]ncc4c23)C1 (configuration not stated)
28.9

Look up and report measured growth (U251 CNS) for the following compound: O=C1C(Cl)=C(Oc2ccccc2)C(=O)c2ccccc21
42.1

Look up and report measured growth (U251 CNS) for the following compound: Cn1c(-c2ccc(Br)cc2)c(O)c(=O)c2c(F)cccc21
34.3

Look up and report measured growth (U251 CNS) for the following compound: O=C1NC(=O)c2c1c1c3ccccc3ccc1c1[nH]c3ccc(Br)cc3c21
20.7

Look up and report measured growth (U251 CNS) for the following compound: O=C(Nc1cccc([N+](=O)[O-])c1)c1cc2ccccc2cc1O
6.12

Look up and report measured growth (U251 CNS) for the following compound: COc1ccc(-c2csc(NC(=O)CSc3nc(-c4ccccc4)cc(=O)[nH]3)n2)cc1
79.7

Look up and report measured growth (U251 CNS) for the following compound: Oc1ccc(CCn2c(O)c(/C=C3\CN=c4ccccc4=N3)sc2=S)cc1
80.3

Look up and report measured growth (U251 CNS) for the following compound: O=C(OCc1ccc2cccc(O)c2n1)N1CCN(C(=O)c2cc3cc(F)ccc3[nH]2)CC1
-87.2

Look up and report measured growth (U251 CNS) for the following compound: O=CC1(C2(C=O)c3ccccc3-c3ccccc32)c2ccccc2-c2ccccc21
-63

Look up and report measured growth (U251 CNS) for the following compound: Cc1ccc(S(=O)(=O)N2CCCC2CO)cc1 (configuration not stated)
98.1

Look up and report measured growth (U251 CNS) for the following compound: CCNc1nc(-c2ccc(Cl)c(OC)c2)c(-c2ccnc(NCCCNS(=O)(=O)c3ccc(Cl)cc3)n2)s1
51.9

Look up and report measured growth (U251 CNS) for the following compound: Cc1nc2sc(C(=O)Nc3cccc(Cl)c3C)c(N)c2cc1C(=O)c1ccccc1
15.6

Look up and report measured growth (U251 CNS) for the following compound: COc1ccc(-c2nnc(-c3ccc4c(c3)nc(-c3ccncc3)n4C3CCCCC3)o2)cc1
59.7

Look up and report measured growth (U251 CNS) for the following compound: O=C1c2cc(Cl)ccc2S(=O)(=O)c2c(NCCCNCCO)nc3ccccc3c21
-15.8

Look up and report measured growth (U251 CNS) for the following compound: OCc1cccc(-c2ccc3ncc(-c4nc(NC5CC5)ncc4F)n3c2)c1
-3.8

----------
Test system: HCT-15 colon
assay-procedure: NCI-60 one-dose screen, 48 h (100 = growth as untreated, 0 = no growth, -100 = all killed)
experimental-conditions: 10 µM unless noted
About 83,000 compounds went through this panel and 20% of them were active in at least one assay; those are over-represented in the sample as a whole.
parameter-measured: growth (%)
Expressed in %, but write only the number.

Look up and report measured growth (HCT-15 colon) for the following molecule: O=c1c2cc(-c3ccccc3)sc2nc2sc(-c3ccccc3)nn12
103

Look up and report measured growth (HCT-15 colon) for the following molecule: O=C1COCCN1c1ccc(Nc2nc(Cl)nc(OCc3cn(Cc4ccccc4)nn3)n2)cc1
93.3

Look up and report measured growth (HCT-15 colon) for the following molecule: C/C(=N\NC(=O)c1ccccc1O)c1cccc(/C(C)=N/NC(=O)c2ccccc2O)n1
42.4

Look up and report measured growth (HCT-15 colon) for the following molecule: Brc1ccc(-n2cc(-c3nn[nH]n3)c(-c3cccs3)n2)cc1
95.3

Look up and report measured growth (HCT-15 colon) for the following molecule: O=C(O)[C@@H]1c2ccccc2-c2ccccc2[C@H]1C(=O)O
101

Look up and report measured growth (HCT-15 colon) for the following molecule: C=C1CC[C@@H]2[C@](C)(COC(C)=O)[C@H](OC(C)=O)CC[C@@]2(C)[C@@H]1CC(Sc1ccccc1)C1=CCOC1=O (some centres not stated)
-38.4

Look up and report measured growth (HCT-15 colon) for the following molecule: CCN1C(=O)N(CC)C2C1NN=c1s/c(=C\c3cccc([N+](=O)[O-])c3)c(=O)n12 (configuration not stated)
11.6

Look up and report measured growth (HCT-15 colon) for the following molecule: c1cc2[nH]ncc2cc1-c1nc2ccc3[nH]ncc3c2c2c1CCCC2
7.1

Look up and report measured growth (HCT-15 colon) for the following molecule: N#CC1C=CN(CC(N)=O)c2ccc3cccnc3c21 (configuration not stated)
96.2

Look up and report measured growth (HCT-15 colon) for the following molecule: CN(C)C1CCN(Cc2ccc(NC(=O)c3cncc(C#Cc4cnc(N)c5ncccc45)c3)cc2C(F)(F)F)CC1
53.2

Look up and report measured growth (HCT-15 colon) for the following molecule: Cn1c(-c2ccc(Br)cc2)c(O)c(=O)c2c(F)cccc21
23.9

Look up and report measured growth (HCT-15 colon) for the following molecule: N#CC1=C(N)Oc2c(sc3c(F)cccc23)C1c1ccc(F)cc1 (configuration not stated)
26
